Just for reference, ChEMBL document CHEMBL1147790 is where these values come from.

target system: DNA polymerase alpha catalytic subunit (Homo sapiens)
Sequence (P09884 whole entry): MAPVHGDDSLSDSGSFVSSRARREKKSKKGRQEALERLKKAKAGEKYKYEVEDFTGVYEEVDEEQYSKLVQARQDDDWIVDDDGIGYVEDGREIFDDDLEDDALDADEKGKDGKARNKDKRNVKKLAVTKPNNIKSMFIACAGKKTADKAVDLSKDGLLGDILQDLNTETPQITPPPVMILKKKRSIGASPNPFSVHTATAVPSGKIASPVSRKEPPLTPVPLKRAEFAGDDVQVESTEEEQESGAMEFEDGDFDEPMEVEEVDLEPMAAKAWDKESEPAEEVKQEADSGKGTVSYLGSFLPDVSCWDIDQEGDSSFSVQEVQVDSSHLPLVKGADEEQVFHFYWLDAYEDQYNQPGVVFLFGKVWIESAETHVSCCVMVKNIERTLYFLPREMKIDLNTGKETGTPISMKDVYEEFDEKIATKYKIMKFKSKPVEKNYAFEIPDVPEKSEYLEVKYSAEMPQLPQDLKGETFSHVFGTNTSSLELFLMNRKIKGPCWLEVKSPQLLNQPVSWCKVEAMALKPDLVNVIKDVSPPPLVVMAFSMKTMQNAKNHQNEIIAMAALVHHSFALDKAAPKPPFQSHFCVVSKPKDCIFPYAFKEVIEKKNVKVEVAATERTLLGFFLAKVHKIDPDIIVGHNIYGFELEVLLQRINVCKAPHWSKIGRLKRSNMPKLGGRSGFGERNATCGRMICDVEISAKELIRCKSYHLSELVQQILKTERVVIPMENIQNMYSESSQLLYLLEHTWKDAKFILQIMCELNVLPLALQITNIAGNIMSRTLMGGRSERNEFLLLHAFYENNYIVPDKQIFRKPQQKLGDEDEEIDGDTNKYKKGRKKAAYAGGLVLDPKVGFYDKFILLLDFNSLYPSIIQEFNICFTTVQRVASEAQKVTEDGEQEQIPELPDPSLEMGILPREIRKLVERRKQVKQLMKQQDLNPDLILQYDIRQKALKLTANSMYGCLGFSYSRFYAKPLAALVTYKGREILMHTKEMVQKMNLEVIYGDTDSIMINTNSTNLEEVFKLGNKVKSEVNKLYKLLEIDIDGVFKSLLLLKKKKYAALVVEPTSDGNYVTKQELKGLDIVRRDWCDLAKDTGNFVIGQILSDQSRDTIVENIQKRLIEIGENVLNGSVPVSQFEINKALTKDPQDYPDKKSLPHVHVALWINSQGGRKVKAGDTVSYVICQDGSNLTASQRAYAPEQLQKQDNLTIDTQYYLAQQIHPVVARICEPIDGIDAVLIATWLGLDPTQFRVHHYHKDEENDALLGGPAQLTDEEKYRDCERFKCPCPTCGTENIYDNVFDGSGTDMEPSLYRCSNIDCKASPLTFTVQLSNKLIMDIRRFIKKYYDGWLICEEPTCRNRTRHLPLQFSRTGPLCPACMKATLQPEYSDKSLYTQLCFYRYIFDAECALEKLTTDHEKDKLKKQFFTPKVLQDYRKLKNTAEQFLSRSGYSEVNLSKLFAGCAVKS
method notes: Inhibition of DNA polymerase alpha
attribute measured: IC50 (µM)
Answers are plain numbers, in µM.

Some solved entries appear below for comparison.
compound structure	attribute measured	quantity unit	assay value
CCCCCCCCCCCCC(=O)/C=C1\[C@H](O)[C@@H](C(=O)OC)[C@H](c2ccccc2)N1CCc1c[nH]c2ccccc12	IC50	µM	21
CCCCCCCCCCCCCCCCC1=C[C@H](C(=O)O)[C@H]2C(=O)C(C(=O)OC)=C(CCCCCCCCCCCCCCCC)[C@H]2[C@H]1C(=O)OC	IC50	µM	1.9
CCCCCCCCCCCCCCCCC1=C[C@H](C(=O)O)[C@H]2C(=O)C(C(=O)OC(C)C)=C(CCCCCCCCCCCCCCCC)[C@H]2[C@H]1C(=O)OC(C)C	IC50	µM	3.3
CCCCCCCCCCCCCCCCC1=C[C@H](C(=O)NCCc2ccccc2)[C@H]2C(=O)C(C(=O)OC)=C(CCCCCCCCCCCCCCCC)[C@H]2[C@H]1C(=O)OC	IC50	µM	6.9

Items follow; give IC50 for each.
1. CCCCCCCCCCCCCCCC[C@]1(O)C=C[C@H](O)[C@H]1C(=O)OC
2. CCCCCCCCCCCCC(=O)/C=C1\[C@@H](O)[C@@H](C(=O)OC)[C@H](CC)N1Cc1ccccc1

Marked response:
66
19.7
